Origin of measurements: patent EP3753932A1

Kindly state pKi for each of the entries shown.
Molecular target: Human α2δ-1 subunit of Cav2.2 calcium channel (Homo sapiens, UniProt P54289)
Sequence (P54289 25-1103): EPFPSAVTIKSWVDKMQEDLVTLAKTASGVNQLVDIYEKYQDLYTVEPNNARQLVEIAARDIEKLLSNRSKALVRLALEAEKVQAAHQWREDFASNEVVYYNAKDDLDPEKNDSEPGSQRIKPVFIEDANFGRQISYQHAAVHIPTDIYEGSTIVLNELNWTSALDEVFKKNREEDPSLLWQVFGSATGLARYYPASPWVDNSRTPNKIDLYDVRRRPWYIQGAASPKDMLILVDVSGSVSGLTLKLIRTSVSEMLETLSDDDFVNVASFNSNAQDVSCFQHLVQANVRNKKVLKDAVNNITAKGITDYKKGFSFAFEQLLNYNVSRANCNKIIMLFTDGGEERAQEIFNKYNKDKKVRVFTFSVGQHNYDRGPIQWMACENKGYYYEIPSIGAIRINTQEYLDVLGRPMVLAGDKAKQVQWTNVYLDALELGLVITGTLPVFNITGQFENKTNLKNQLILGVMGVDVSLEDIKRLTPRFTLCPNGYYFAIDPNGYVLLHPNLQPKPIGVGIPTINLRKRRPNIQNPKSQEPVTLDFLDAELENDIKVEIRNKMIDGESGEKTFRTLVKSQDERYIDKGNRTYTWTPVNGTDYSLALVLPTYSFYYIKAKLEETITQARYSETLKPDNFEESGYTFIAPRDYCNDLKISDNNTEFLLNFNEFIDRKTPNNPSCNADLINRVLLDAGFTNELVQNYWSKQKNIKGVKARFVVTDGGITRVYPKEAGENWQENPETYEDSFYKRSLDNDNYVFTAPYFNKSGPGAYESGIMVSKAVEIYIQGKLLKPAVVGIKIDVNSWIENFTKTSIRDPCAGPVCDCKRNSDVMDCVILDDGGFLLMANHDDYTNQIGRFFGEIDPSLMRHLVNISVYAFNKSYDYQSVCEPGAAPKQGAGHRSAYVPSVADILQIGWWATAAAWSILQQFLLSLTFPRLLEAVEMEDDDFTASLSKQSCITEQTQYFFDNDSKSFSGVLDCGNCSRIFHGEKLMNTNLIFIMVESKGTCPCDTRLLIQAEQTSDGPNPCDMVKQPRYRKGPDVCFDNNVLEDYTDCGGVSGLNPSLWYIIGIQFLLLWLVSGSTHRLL
Assay: Human α2δ-1 subunit of Cav2.2 calcium channel assay ([3H]-Gabapentin binding)
pKi: −log10 of the molar value.

[ask] Please give the measured pKi for this compound: CCC[C@H](c1cnc2ccc(CN3CCC(c4cccc(O)c4)(N(C)C)CC3)cc2n1)N1C[C@@H](C)N[C@@H](C)C1 [Example 38]
[reply] > 6.30

[ask] Queued: CCC[C@H](c1cc2ccc(CN3CCC(c4cccc(O)c4)(N(C)C)CC3)cc2nc1CC)N1C[C@@H](C)N[C@@H](C)C1 [Example 23]
[reply] > 6.30

[ask] Queued: CCC[C@@H](c1ncc2cc(N3CCC(c4cccc(O)c4)(N(C)C)CC3)ccc2n1)N1C[C@@H](C)N[C@@H](C)C1 [Example 27]
[reply] < 5.30

[ask] Queued: CCC[C@H](c1cnc2ccc(CN3CCC(c4cccc(O)c4)(N(C)C)CC3)cc2c1)N1C[C@@H](C)N[C@@H](C)C1 [Example 16]
[reply] > 6.30

[ask] Queued: CCCC(c1cnc2ccc(N3CCC(c4cccc(O)c4)(N(C)C)CC3)cc2n1)N1C[C@@H](C)N[C@@H](C)C1 (stereo partly drawn) [Example 33]
[reply] > 6.30

[ask] Queued: CCCC(c1ccc2cc(CN3CCC(c4cccc(O)c4)(N(C)C)CC3)ccc2n1)N1C[C@@H](C)N[C@@H](C)C1 (stereo partly drawn) [Example 7]
[reply] > 6.30

[ask] Queued: CCCC(c1cnc2cc(CN3CCC(c4cccc(O)c4)(N(C)C)CC3)ccc2c1)N1C[C@@H](C)N[C@@H](C)C1 (stereo partly drawn) [Example 6]
[reply] > 6.30

[ask] Queued: CCCC(c1ncc2cc(N3CCC(c4cccc(O)c4)(N(C)C)CC3)ccc2n1)N1C[C@@H](C)N[C@@H](C)C1 (stereo partly drawn) [Example 25]
[reply] < 5.30

[ask] Queued: CCCC(c1cnc2ccc(N3CCC(c4cccc(O)c4)(N(C)C)CC3)cc2c1)N1C[C@@H](C)N[C@@H](C)C1 (stereo partly drawn) [Example 14]
[reply] > 6.30

[ask] Queued: CCCC(c1cnc2ccc(CN3CCC(c4cccc(O)c4)(N(C)C)CC3)cc2n1)N1C[C@@H](C)N[C@@H](C)C1 (stereo partly drawn) [Example 37]
[reply] > 6.30

[ask] Queued: CCCC(c1cc(OC)c2cc(N3CCC(c4ccccc4)(N(C)C)CC3)ccc2n1)N1C[C@@H](C)N[C@@H](C)C1 (stereo partly drawn) [Example 31]
[reply] > 6.30

[ask] Queued: CCCC(c1cnc2ccc(CN3CCC(c4cccc(O)c4)(N(C)C)CC3)cc2c1)N1C[C@@H](C)N[C@@H](C)C1 (stereo partly drawn) [Example 15]
[reply] > 6.30

[ask] Queued: CCC[C@H](c1nc2ccc(CN3CCC(c4cccc(O)c4)(N(C)C)CC3)cc2nc1CC)N1C[C@@H](C)N[C@@H](C)C1 [Example 41]
[reply] > 6.30

[ask] Queued: CCC[C@H](c1cnc2cc(CN3CCC(c4cccc(O)c4)(N(C)C)CC3)ccc2c1)N1C[C@@H](C)N[C@@H](C)C1 [Example 8]
[reply] > 6.30

[ask] Queued: CCCC(c1ccc2cc(N3CCC(c4cccc(O)c4)(N(C)C)CC3)ccc2c1)N1C[C@@H](C)N[C@@H](C)C1 (stereo partly drawn) [Example 1]
[reply] < 5.30

[ask] Queued: CCC[C@H](c1ncc2cc(N3CCC(c4cccc(O)c4)(N(C)C)CC3)ccc2n1)N1C[C@@H](C)N[C@@H](C)C1 [Example 26]
[reply] < 5.30

[ask] Queued: CCCC(c1nc2ccc(CN3CCC(c4cccc(O)c4)(N(C)C)CC3)cc2nc1CC)N1C[C@@H](C)N[C@@H](C)C1 (stereo partly drawn) [Example 40]
[reply] > 6.30

[ask] Queued: CCC[C@H](c1cnc2cc(CN3CCC(c4ccccc4)(N(C)C)CC3)ccc2c1)N1C[C@@H](C)N[C@@H](C)C1 [Example 12]
[reply] > 6.30
